MTT % Viability listing for selected compounds.
Tested on: THP-1 cells
Assay: Cell viability assay (MTT)
Type: cell-based
Details: compound 5 μM, 18 hours incubation; normalized to DMSO as 100%; mean

Tell me MTT % Viability reported for "COc1ccc(S(=O)(=O)Nc2cc(OC)c(Cl)cc2OC)cc1N"
77.3%

###

Tested on: THP-1 cells
Assay: Cell viability assay (MTT)
Type: cell-based
Conditions: compound 5 μM, 18 hours incubation; normalized to DMSO as 100%; mean
MTT % Viability strictly less than 80% = MET. Otherwise NOT MET.

CCOc1ccc(S(=O)(=O)Nc2ccc(Cl)c(OC)c2)cc1; NOT MET
C#CCCCN(c1cc(OC)c(Cl)cc1OC)S(=O)(=O)c1ccc(OCC)cc1; MET
CCOc1ccc(S(=O)(=O)N(C)c2cc(OC)c(Cl)cc2OC)cc1; MET

Now look at this entry.
Determine whether this compound shows MTT % Viability lower than 80% (ties excluded): "C#CCOCCOCCOCCN(c1cc(OC)c(Cl)cc1OC)S(=O)(=O)c1ccc(OCC)cc1"
MET

###

System: THP-1 cells
Assay: Cell viability assay (MTT)
Type: cell-based
Conditions: compound 5 μM, 18 hours incubation; normalized to DMSO as 100%; mean
MTT % Viability listing for selected compounds.
Reply numerically in %, unit not repeated.

CCOc1ccc(S(=O)(=O)N(CCCNC(=O)CCCC[C@H]2SC[C@H]3NC(=O)N[C@H]32)c2cc(OC)c(N=[N+]=[N-])cc2OC)cc1; 73.8
CCNC(=O)CCCN(c1cc(OC)c(Cl)cc1OC)S(=O)(=O)c1ccc(OCC)cc1; 78.2
CCOc1ccc(S(=O)(=O)Nc2cc(OC)c(Cl)c(OC)c2)cc1; 71.4
COc1cc(NS(=O)(=O)c2ccc(CNC(=O)OC(C)(C)C)cc2)c(OC)cc1Cl; 109.2
CCOc1ccc(S(=O)(=O)Nc2cc(OC)c(Br)cc2OC)cc1; 68.8
CCCCN(c1cc(OC)c(Cl)cc1OC)S(=O)(=O)c1ccc(OCC)cc1; 77.7
CCCCOc1ccc(S(=O)(=O)Nc2cc(OC)c(Cl)cc2OC)cc1; 95.3
COc1cc(NS(=O)(=O)c2ccc(C#N)cc2)c(OC)cc1Cl; 102.9
COc1cc(NS(=O)(=O)c2ccc(O)cc2)c(OC)cc1Cl; 85.2
COc1cc(NS(=O)(=O)c2ccccc2OC)c(OC)cc1Cl; 92.1

Tell me MTT % Viability reported for "CCCOc1ccc(S(=O)(=O)Nc2cc(OC)c(Cl)cc2OC)cc1"
71.3

Tell me MTT % Viability reported for "CCOc1ccc(S(=O)(=O)Nc2cc(OC)c(Cl)cc2OC)cc1Br"
85.0

Tell me MTT % Viability reported for "C#CCN(c1cc(OC)c(Cl)cc1OC)S(=O)(=O)c1ccc(OCC)cc1"
72.0

Tell me MTT % Viability reported for "CCOc1ccc(S(=O)(=O)N(c2cc(OC)c(Cl)cc2OC)C(C)C)cc1"
103.2

Tell me MTT % Viability reported for "CCOc1ccc(S(=O)(=O)N(CCc2ccccc2)c2cc(OC)c(Cl)cc2OC)cc1"
44

Tell me MTT % Viability reported for "C#CCOc1ccc(S(=O)(=O)Nc2cc(OC)c(Cl)cc2OC)cc1"
80.9

Tell me MTT % Viability reported for "CCCCCCCN(c1cc(OC)c(Cl)cc1OC)S(=O)(=O)c1ccc(OCC)cc1"
90.4

Tell me MTT % Viability reported for "COC(=O)c1ccc(S(=O)(=O)Nc2cc(OC)c(Cl)cc2OC)cc1"
74.4

###

Test system: THP-1 cells
Test: Cell viability assay (MTT)
Format: cell-based
Conditions: compound 5 μM, 18 hours incubation; normalized to DMSO as 100%; mean
MTT % Viability listing for selected molecules.
Reply numerically in %, unit not repeated.

COc1cc(NS(=O)(=O)c2ccc(OC)c(N=[N+]=[N-])c2)c(OC)cc1Cl [Compound 61]; 87.2
CCOc1ccc(S(=O)(=O)N(Cc2ccccc2)c2cc(OC)c(Cl)cc2OC)cc1 [Compound 46]; 71.7
CCOC(=O)c1ccc(S(=O)(=O)Nc2cc(OC)c(Cl)cc2OC)cc1 [Compound 29]; 70.8
CCOc1ccc(S(=O)(=O)Nc2cc(OC)c([N+](=O)[O-])cc2OC)cc1 [Compound 9]; 79.2
CCOc1ccc(S(=O)(=O)N(CCCNC(=O)CCCCCNC(=O)c2ccc3c(c2)C(=O)OC32c3ccc(O)cc3Oc3cc(O)ccc32)c2cc(OC)c(Cl)cc2OC)cc1 [Compound 56]; 98.1
C#CCCN(c1cc(OC)c(Cl)cc1OC)S(=O)(=O)c1ccc(OCC)cc1 [Compound 43]; 70.1

Tell me MTT % Viability reported for COc1cc(NS(=O)(=O)c2ccc(Oc3ccccc3)cc2)c(OC)cc1Cl [Compound 22]
91.3

Tell me MTT % Viability reported for CCOc1ccc(S(=O)(=O)Nc2cc(OC)c(Cl)cc2OC)cc1 [Compound 1]
73.5

Tell me MTT % Viability reported for CCOc1ccc(S(=O)(=O)Nc2cc(OC)ccc2OC)cc1 [Compound 6]
73.1

Tell me MTT % Viability reported for CCCc1ccc(S(=O)(=O)Nc2cc(OC)c(Cl)cc2OC)cc1 [Compound 16]
85.7

Tell me MTT % Viability reported for CCCN(c1cc(OC)c(Cl)cc1OC)S(=O)(=O)c1ccc(OCC)cc1 [Compound 34]
71.6

Tell me MTT % Viability reported for CCOc1ccc(S(=O)(=O)N(CC(C)C)c2cc(OC)c(Cl)cc2OC)cc1 [Compound 41]
76.7

Tell me MTT % Viability reported for C#CCN(c1cc(OC)c(N=[N+]=[N-])cc1OC)S(=O)(=O)c1ccc(OCC)cc1 [Compound 62]
73.4

Tell me MTT % Viability reported for CCCCCCCCCCCCN(c1cc(OC)c(Cl)cc1OC)S(=O)(=O)c1ccc(OCC)cc1 [Compound 39]
93.0

Tell me MTT % Viability reported for CCCCCCN(c1cc(OC)c(Cl)cc1OC)S(=O)(=O)c1ccc(OCC)cc1 [Compound 37]
95.2

Tell me MTT % Viability reported for CCCCCN(c1cc(OC)c(Cl)cc1OC)S(=O)(=O)c1ccc(OCC)cc1 [Compound 36]
72.9

###

System: THP-1 cells
Assay: Cell viability assay (MTT)
Type: cell-based
Settings: compound 5 μM, 18 hours incubation; normalized to DMSO as 100%; mean
Assay endpoint: MTT % Viability
# number then unit; no other words

In the examples that follow, each entry is paired with its recorded MTT % Viability.
CCOC(=O)CCCN(c1cc(OC)c(Cl)cc1OC)S(=O)(=O)c1ccc(OCC)cc1; 80.1%
COc1cccc(S(=O)(=O)Nc2cc(OC)c(Cl)cc2OC)c1; 79.6%

Tell me MTT % Viability reported for "CCOC(=O)CN(c1cc(OC)c(Cl)cc1OC)S(=O)(=O)c1ccc(OCC)cc1"
81.4%

###

Test system: THP-1 cells
Assay: Cell viability assay (MTT)
Assay type: cell-based
Details: compound 5 μM, 18 hours incubation; normalized to DMSO as 100%; mean
MTT % Viability listing for selected compounds.
Reply numerically in %, unit not repeated.

In the examples that follow, each entry is paired with its recorded MTT % Viability.
CCOc1ccc(S(=O)(=O)Nc2cc(OC)c(N=[N+]=[N-])cc2OC)cc1; 76.6
CCOc1ccc(S(=O)(=O)Nc2cc(OC)c(N)cc2OC)cc1; 92.2
COc1cc(NS(=O)(=O)c2ccc(C(N)=O)cc2)c(OC)cc1Cl; 91.0
CCOc1ccc(S(=O)(=O)N(CCCNC(=O)CCCC[C@H]2SC[C@H]3NC(=O)N[C@H]32)c2cc(OC)c(Cl)cc2OC)cc1; 69.6
COc1cc(NS(=O)(=O)c2ccc(C(=O)O)cc2)c(OC)cc1Cl; 98.2

Tell me MTT % Viability reported for "COc1ccc(S(=O)(=O)Nc2cc(OC)c(Cl)cc2OC)cc1"
69.6

Tell me MTT % Viability reported for "COc1cc(NS(=O)(=O)c2ccc(CN)cc2)c(OC)cc1Cl"
97.0

###

System: THP-1 cells
Experiment: Cell viability assay (MTT)
Assay type: cell-based
Conditions: compound 5 μM, 18 hours incubation; normalized to DMSO as 100%; mean
Assay endpoint: MTT % Viability (%)
Reply numerically in %, unit not repeated.

In the examples that follow, each entry is paired with its recorded MTT % Viability.
CCOc1ccc(S(=O)(=O)N(CCCC(=O)O)c2cc(OC)c(Cl)cc2OC)cc1; 73.4
CNC(=O)c1ccc(S(=O)(=O)Nc2cc(OC)c(Cl)cc2OC)cc1; 77.0
CCOc1ccc(S(=O)(=O)Nc2ccc(Cl)cc2OC)cc1; 78.3
CCOc1ccc(S(=O)(=O)N(CCCNC(=O)OC(C)(C)C)c2cc(OC)c(Cl)cc2OC)cc1; 75.6
CCOc1ccc(S(=O)(=O)N(CCCN)c2cc(OC)c(N=[N+]=[N-])cc2OC)cc1; 68.9
CCOc1ccc(S(=O)(=O)N(CCCN)c2cc(OC)c(Cl)cc2OC)cc1.Cl; 71.0

Tell me MTT % Viability reported for "COc1cc(NS(=O)(=O)c2ccc([N+](=O)[O-])cc2)c(OC)cc1Cl"
97.4

Tell me MTT % Viability reported for "CCOc1ccc(S(=O)(=O)N(C(C)=O)c2cc(OC)c(Cl)cc2OC)cc1"
72.0

Tell me MTT % Viability reported for "COc1cc(NS(=O)(=O)c2ccc(N)cc2)c(OC)cc1Cl"
96.0

Tell me MTT % Viability reported for "CCOc1ccc(S(=O)(=O)N(CCCO)c2cc(OC)c(Cl)cc2OC)cc1"
68.5
